- System: HCT-116
- EXPERIMENTAL PROTOCOL: NCI tumour cell line growth inhibition, 48 h
Activity calls are given as the source filed them. Cut-off read from the data, not from the text of the source: active = GI50 up to about 1.1 µM and inactive = higher.
REPORTED PROPERTY: GI50

Task item: Give GI50 for the following compound: CCOc1ccccc1N1C(=O)C(=O)C(c2nc3ccccc3o2)C(=O)C1=O
Reply: 70.5 µM (inactive)

Task item: Give GI50 for the following compound: c1ccc2c(c1)Oc1cccc3cccc-2c13
Reply: > 100 µM (inactive)

Task item: Give GI50 for the following compound: O=C1CN2C(Cl)(Cl)C2(c2ccccc2)c2cc(Cl)ccc2N1CC1CC1 (stereo unspecified)
Reply: 18.3 µM (inactive)

Task item: Give GI50 for the following compound: CCOC(=O)CCc1ccc(NC(=O)/C=C/c2ccc([N+](=O)[O-])o2)cc1
Reply: 0.685 µM (active)

Task item: Give GI50 for the following compound: COC(=O)c1c(O)ccc2c1c1c(n2Cc2ccccc2OC)C(=O)c2ccccc2C1
Reply: 27.8 µM (inactive)

Task item: Give GI50 for the following compound: Cc1ccc(/C(C#N)=C/c2cccc([N+](=O)[O-])c2)cc1
Reply: 76.2 µM (inactive)

Where do these numbers come from? They come from ChEMBL document CHEMBL1201862.
